- Test system: Ps. aeruginosa (Gn-III)
- method-summary: In vitro antibacterial activity, two-fold agar dilution, Mueller-Hinton agar (Table 1), group Gn-III
- Assay type: cell-based
- conditions: Pseudomonas aeruginosa; read-out: Geometric Mean of MIC
Exam item: assign 1 to entries whose MIC is below 6 µg/mL and -1 to entries at or above 6 µg/mL. Note that a value of exactly 6 µg/mL receives -1.

Below are worked cases with known answers.
molecule	label-value
CCSc1cc[n+](CC2=C(C(=O)[O-])N3C(=O)C(NC(=O)/C(=N\OC(C)(C)C(=O)O)c4csc(N)n4)C3SC2)cc1 (stereo not drawn)	-1
CC(C)(O/N=C(\C(=O)N[C@@H]1C(=O)N2C(C(=O)[O-])=C(C[n+]3ccccc3)CS[C@H]12)c1csc(N)n1)C(=O)O [Ceftazidime, ceftazidime, reference compound]	1

[ask] Quick check: MIC of CSc1ccc[n+](CC2=C(C(=O)[O-])N3C(=O)C(NC(=O)/C(=N\OC(C)(C)C(=O)O)c4csc(N)n4)C3SC2)c1 (stereo not drawn) under 6 µg/mL?
[reply] 1

[ask] Quick check: MIC of CC(C)Sc1cc[n+](CC2=C(C(=O)[O-])N3C(=O)C(NC(=O)/C(=N\OC(C)(C)C(=O)O)c4csc(N)n4)C3SC2)cc1 (stereo not drawn) under 6 µg/mL?
[reply] -1

[ask] Quick check: MIC of CSc1cccc[n+]1CC1=C(C(=O)[O-])N2C(=O)C(NC(=O)/C(=N\OC(C)(C)C(=O)O)c3csc(N)n3)C2SC1 (stereo not drawn) under 6 µg/mL?
[reply] 1

[ask] Quick check: MIC of CSc1cc[n+](CC2=C(C(=O)[O-])N3C(=O)C(NC(=O)/C(=N\OC(C)(C)C(=O)O)c4csc(N)n4)C3SC2)cc1 (stereo not drawn) under 6 µg/mL?
[reply] 1

====

- method-summary: in vivo
- conditions: mouse, im, 10 mg/kg
AUC overview

compound	AUC
CC(C)(O/N=C(\C(=O)N[C@@H]1C(=O)N2C(C(=O)[O-])=C(C[n+]3ccccc3)CS[C@H]12)c1csc(N)n1)C(=O)O [Ceftazidime, ceftazidime, reference compound]	5500 ng·h/mL

[ask] What value of measured AUC is listed for CSc1cc[n+](CC2=C(C(=O)[O-])N3C(=O)C(NC(=O)/C(=N\OC(C)(C)C(=O)O)c4csc(N)n4)C3SC2)cc1 (centres unmarked) ?
[reply] 3700 ng·h/mL

====

MIC overview
- Test system: Penicillin-sensitive S. aureus (Gp-Ia)
- method-summary: In vitro antibacterial activity, two-fold agar dilution, Mueller-Hinton agar (Table 1), group Gp-Ia
- Type: cell-based
- conditions: Staphylococcus aureus; read-out: Geometric Mean of MIC

compound	readout-label	result-value
CCSc1cc[n+](CC2=C(C(=O)[O-])N3C(=O)C(NC(=O)/C(=N\OC(C)(C)C(=O)O)c4csc(N)n4)C3SC2)cc1 (centres unmarked)	MIC	6.3 µg/mL
CSc1cc[n+](CC2=C(C(=O)[O-])N3C(=O)C(NC(=O)/C(=N\OC(C)(C)C(=O)O)c4csc(N)n4)C3SC2)cc1 (centres unmarked)	MIC	4.7 µg/mL
CSc1ccc[n+](CC2=C(C(=O)[O-])N3C(=O)C(NC(=O)/C(=N\OC(C)(C)C(=O)O)c4csc(N)n4)C3SC2)c1 (centres unmarked)	MIC	4.7 µg/mL
CC(C)Sc1cc[n+](CC2=C(C(=O)[O-])N3C(=O)C(NC(=O)/C(=N\OC(C)(C)C(=O)O)c4csc(N)n4)C3SC2)cc1 (centres unmarked)	MIC	4.7 µg/mL

Please find the next compound below.
[ask] What value of measured MIC is listed for CSc1cccc[n+]1CC1=C(C(=O)[O-])N2C(=O)C(NC(=O)/C(=N\OC(C)(C)C(=O)O)c3csc(N)n3)C2SC1 (centres unmarked) ?
[reply] 9.5 µg/mL

====

- method-summary: in vivo
- conditions: mouse, im, 20 mg/kg
concentration at 1 h overview
Your answer should be a plain number; it is taken to be in ng/mL.

compound	unit-symbol	concentration at 1 h
CC(C)(O/N=C(\C(=O)N[C@@H]1C(=O)N2C(C(=O)[O-])=C(C[n+]3ccccc3)CS[C@H]12)c1csc(N)n1)C(=O)O [Ceftazidime, ceftazidime, reference compound]	ng/mL	2400

Please find the next compound below.
[ask] What value of measured concentration at 1 h is listed for CSc1cc[n+](CC2=C(C(=O)[O-])N3C(=O)C(NC(=O)/C(=N\OC(C)(C)C(=O)O)c4csc(N)n4)C3SC2)cc1 (centres unmarked) ?
[reply] 4000

====

Consider compounds characterized by their MIC with Pr. morganii, Ent. cloacae and Ser. marcescens (Gn-II).
Your answer should be a plain number; it is taken to be in µg/mL.

compound	assay-system	unit-symbol	MIC
CC(C)Sc1cc[n+](CC2=C(C(=O)[O-])N3C(=O)C(NC(=O)/C(=N\OC(C)(C)C(=O)O)c4csc(N)n4)C3SC2)cc1 (stereo not drawn)	Pr. morganii, Ent. cloacae and Ser. marcescens (Gn-II)	µg/mL	2.4
CC(C)(O/N=C(\C(=O)N[C@@H]1C(=O)N2C(C(=O)[O-])=C(C[n+]3ccccc3)CS[C@H]12)c1csc(N)n1)C(=O)O [Ceftazidime, ceftazidime, reference compound]	Pr. morganii, Ent. cloacae and Ser. marcescens (Gn-II)	µg/mL	2.7
CCSc1cc[n+](CC2=C(C(=O)[O-])N3C(=O)C(NC(=O)/C(=N\OC(C)(C)C(=O)O)c4csc(N)n4)C3SC2)cc1 (stereo not drawn)	Pr. morganii, Ent. cloacae and Ser. marcescens (Gn-II)	µg/mL	2.1
CSc1cccc[n+]1CC1=C(C(=O)[O-])N2C(=O)C(NC(=O)/C(=N\OC(C)(C)C(=O)O)c3csc(N)n3)C2SC1 (stereo not drawn)	Pr. morganii, Ent. cloacae and Ser. marcescens (Gn-II)	µg/mL	3.2

[ask] What value of measured MIC is listed for CSc1cc[n+](CC2=C(C(=O)[O-])N3C(=O)C(NC(=O)/C(=N\OC(C)(C)C(=O)O)c4csc(N)n4)C3SC2)cc1 (stereo not drawn) ?
[reply] 1.5

[ask] What value of measured MIC is listed for CSc1ccc[n+](CC2=C(C(=O)[O-])N3C(=O)C(NC(=O)/C(=N\OC(C)(C)C(=O)O)c4csc(N)n4)C3SC2)c1 (stereo not drawn) ?
[reply] 2.8

====

- method-summary: in vivo
- conditions: mouse, im, 10 mg/kg
half-life overview
Give the number first and the unit second.

molecule	half-life
CSc1cc[n+](CC2=C(C(=O)[O-])N3C(=O)C(NC(=O)/C(=N\OC(C)(C)C(=O)O)c4csc(N)n4)C3SC2)cc1 (centres unmarked)	18 min

[ask] What value of measured half-life is listed for CC(C)(O/N=C(\C(=O)N[C@@H]1C(=O)N2C(C(=O)[O-])=C(C[n+]3ccccc3)CS[C@H]12)c1csc(N)n1)C(=O)O [Ceftazidime, ceftazidime, reference compound] ?
[reply] 16 min

====

half-life overview
- method-summary: in vivo
- conditions: mouse, im, 20 mg/kg
- Experimental: Blood samples were collected from the orbital sinuses into heparinized capillary tubes and assayed by the paper disc-agar diffusion method using E. coli as the test organism. The half-life values and areas under the curve were determined.
Your answer should be a plain number; it is taken to be in min.

molecule	readout-label	result-value
CSc1cc[n+](CC2=C(C(=O)[O-])N3C(=O)C(NC(=O)/C(=N\OC(C)(C)C(=O)O)c4csc(N)n4)C3SC2)cc1 (centres unmarked) [Example 2]	half-life	16

Please find the next molecule below.
[ask] What value of measured half-life is listed for CC(C)(O/N=C(\C(=O)N[C@@H]1C(=O)N2C(C(=O)[O-])=C(C[n+]3ccccc3)CS[C@H]12)c1csc(N)n1)C(=O)O [Ceftazidime, ceftazidime, reference compound] ?
[reply] 14

====

- method-summary: in vivo
- conditions: mouse, im, 20 mg/kg
concentration at 40 min overview
Your answer should be a plain number; it is taken to be in ng/mL.

compound	concentration at 40 min / ng/mL
CSc1cc[n+](CC2=C(C(=O)[O-])N3C(=O)C(NC(=O)/C(=N\OC(C)(C)C(=O)O)c4csc(N)n4)C3SC2)cc1 (centres unmarked)	8700

Please find the next compound below.
[ask] What value of measured concentration at 40 min is listed for CC(C)(O/N=C(\C(=O)N[C@@H]1C(=O)N2C(C(=O)[O-])=C(C[n+]3ccccc3)CS[C@H]12)c1csc(N)n1)C(=O)O [Ceftazidime, ceftazidime, reference compound] ?
[reply] 7700

====

concentration at 1.5 h overview
- method-summary: in vivo
- conditions: mouse, im, 20 mg/kg
Your answer should be a plain number; it is taken to be in ng/mL.

compound	unit-symbol	concentration at 1.5 h
CSc1cc[n+](CC2=C(C(=O)[O-])N3C(=O)C(NC(=O)/C(=N\OC(C)(C)C(=O)O)c4csc(N)n4)C3SC2)cc1 (centres unmarked) [Example 2]	ng/mL	1200

Please find the next compound below.
[ask] What value of measured concentration at 1.5 h is listed for CC(C)(O/N=C(\C(=O)N[C@@H]1C(=O)N2C(C(=O)[O-])=C(C[n+]3ccccc3)CS[C@H]12)c1csc(N)n1)C(=O)O [Ceftazidime, ceftazidime, reference compound] ?
[reply] 610
